assay: Pharmacokinetic parameter AUC was determined when a dose of 1 mg/kg was administered intravenously; format: ADME, organism-based; parameters: dose 1 mg/kg, route intravenous; details: rat, in vivo, iv
assay-endpoint: AUC (µg·h/mL)
One number for each entry, in µg·h/mL.

## Task # get_value(readout='AUC', item= COC(=O)c1ccc2oc(C(=O)C(Cc3ccccc3)NC(=O)Cn3c(-c4cccc(OC)c4)ncc(N)c3=O)nc2c1 (stereo unspecified) )
## Result 108
